Source listed as paper PMC6556873.

Target: OTUB2 (OTUB2A) (Homo sapiens)
Construct: full length residues 1-234, E. coli BL21(DE3)-R3, His tag removed by TEV, construct 27312 Da
Sequence (Q96DC9 1-234): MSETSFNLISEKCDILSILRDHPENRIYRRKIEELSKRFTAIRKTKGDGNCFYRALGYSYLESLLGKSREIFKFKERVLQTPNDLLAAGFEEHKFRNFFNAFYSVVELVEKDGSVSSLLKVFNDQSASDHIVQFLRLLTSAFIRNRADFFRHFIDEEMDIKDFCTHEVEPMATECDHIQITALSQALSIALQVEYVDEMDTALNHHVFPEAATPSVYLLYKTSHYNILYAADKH
Set-up: Intact protein LC/MS covalent labelling, fragments in pools of five, 200 uM each, 4 °C
Details: 24 h, 4 °C, pool of five; 200 µM; covalent
endpoint label: OTUB2
Numbers only.

So for CC(NC(=O)CCl)c1ccc2ccccc2c1 (centres unmarked) , the logged OTUB2 turned out to be 0.47

// field: OTUB2; key: Cc1ccc(NC(=O)CCl)cc1Br ; value = 0.14

OTUB2 measured on Cl.O=C(CCl)N1CCN(Cc2ccc3c(c2)OCO3)CC1 = 0

// OTUB2 lookup, compound = O=C(CCl)N1CCCC1c1ccc2c(c1)OCCCO2 (centres unmarked) , result: 0

Per the record, CC(C)(C)NC(=O)CN1CCN(C(=O)CCl)CC1.Cl has OTUB2 of 0.13

Okay, here is my list. What is OTUB2 for each of these?
1. O=C(CCl)NC(=O)c1ccco1
2. CC(=O)c1sc(NC(=O)CCl)nc1C
3. CC(NC(=O)CCl)c1ccc(Br)cc1 (centres unmarked)
4. O=C(CCl)NC1CCSC1=O (centres unmarked)
5. O=C(CCl)Nc1ccccc1C(F)(F)F
6. CC(c1nc2ccccc2s1)N(C)C(=O)CCl (centres unmarked)
7. COC(=O)C1(NC(=O)CCl)CCC(C)CC1 (centres unmarked)

Ans:
0
0
0.34
0
0
0.19
0

Provide reported OTUB2 for each item, in the same order as listed.
1. CN(CC1COc2ccccc2O1)C(=O)CCl (centres unmarked)
2. CC(NC(=O)CCl)c1ccc2c(c1)CC(=O)N2 (centres unmarked)
3. CCOC(=O)C1CCN(C(=O)CCl)CC1
4. CN(Cc1cccs1)C(=O)CCl

Ans:
0.06
0.29
0
0

Below is a list of compounds. For each, state its recorded OTUB2.
1. NC(=O)C1CN(C(=O)CCl)c2ccccc2O1 (centres unmarked)
2. CC(C)C(=O)NNC(=O)CCl
3. O=C(CCl)NCc1ccco1

Ans:
1: 0.15; 2: 0.09; 3: 0.35

* * *

Give viability at 48 h, 10 µM for every item shown.
Assay: in vitro
Design: species or system HB2, HEK293
Settings: human, ccd841 cells
Numbers only, in %.

Hi there! I need viability at 48 h, 10 µM for each item below, if you can.
1. CC(NC(=O)CCl)c1ccc(F)cc1F (centres unmarked)
2. Cc1cccc(CN2CCN(C(=O)CCl)CC2)c1
3. C=CC(=O)N1CCN(c2nc3ccccc3o2)C(C)C1 (centres unmarked)
4. Cc1nnc(NC(=O)CCl)o1

Ans:
1: 78.2; 2: 42.4; 3: 99.4; 4: 107

Please look at the items below and tell me viability at 48 h, 10 µM for each one, in order.
1. CC(c1cc2ccccc2o1)N(C)C(=O)CCl (centres unmarked)
2. O=C(CCl)N(c1ccccc1)C1C=CS(=O)(=O)C1 (centres unmarked)

Ans:
[34.1, 31]

Parameters: items (list). Returns: viability at 48 h, 10 µM for each item.
1. CC(=O)c1ccc(N2CCN(C(=O)CCl)CC2)c(F)c1
2. Cc1nc(-c2ccc3c(c2)CCN3C(=O)CCl)cs1
3. O=C(CCl)Nc1ccc(N2CCOCC2)cc1

Ans:
1. 38.5
2. 22.6
3. 79.5

Dear reader, for each entry below, please note its viability at 48 h, 10 µM.
1. C=CC(=O)NCc1ccc2c(c1)C(C)(C)C(=O)N2
2. O=C(CCl)N(c1ccc(F)cc1)C1C=CS(=O)(=O)C1 (centres unmarked)
3. O=C(CCl)N1CCNC1=O
4. Cc1ccc(CN(C)C(=O)CCl)c(C)c1

Ans:
1: 110; 2: 33.4; 3: 98.6; 4: 69.9
